Tested on: THP-1 cells
method description: enhancing effect for differentiation-induction from human monocyte to macrophage (THP-1/Mφ system, MTT readout)
Type: cell-based
Set-up: key: ++: enhanced 100% or more; +: enhanced 50-100%; ±: enhanced 25-50%; −: no activity; /: expressed cytoxicity; NT: not tested or under assessment
conditions used: 1 μM; in comparison with enhancing action for differentiation-induction of EM 100 μM
measurement label: activities in THP-1/Mφ system, Treated conc. 1 μM

compound	value reported
CC[C@H]1OC(=O)[C@H](C)[C@@H](O[C@H]2C[C@@](C)(OC)[C@@H](O)[C@H](C)O2)[C@H](C)[C@@H](O[C@@H]2O[C@H](C)C[C@H](N(C)C)[C@H]2O)[C@](C)(O)C[C@@H](C)C(=O)[C@H](C)[C@@H](O)[C@]1(C)O	−
CCC(O)C(C)(O)C1OC(=O)C(C)C(OC2CC(C)(OC)C(O)C(C)O2)C(C)C(OC2OC(C)CC(N(C)CC#N)C2O)C2(C)CC(C)=C(O2)C1C (stereo not shown)	−

====

Tested on: THP-1 cells
method description: enhancing effect for differentiation-induction from human monocyte to macrophage (THP-1/Mφ system, MTT readout)
Type: cell-based
Design: key: ++: enhanced 100% or more; +: enhanced 50-100%; ±: enhanced 25-50%; −: no activity; /: expressed cytoxicity; NT: not tested or under assessment
conditions used: 3 μM; in comparison with enhancing action for differentiation-induction of EM 100 μM
measurement label: activities in THP-1/Mφ system, Treated conc. 3 μM

molecule	value reported
CC[C@@H](O)[C@@](C)(O)[C@@H]1OC(=O)[C@H](C)[C@@H](O[C@H]2C[C@@](C)(OC)[C@@H](O)[C@H](C)O2)[C@H](C)[C@@H](O[C@@H]2O[C@H](C)C[C@H](N3CCOCC3)[C@H]2O)[C@@]2(C)CC(C)=C(O2)[C@@H]1C [EM747]	−

====

System: THP-1 cells
method description: enhancing effect for differentiation-induction from human monocyte to macrophage (THP-1/Mφ system, MTT readout)
Type: cell-based
Parameters: key: ++: enhanced 100% or more; +: enhanced 50-100%; ±: enhanced 25-50%; −: no activity; /: expressed cytoxicity; NT: not tested or under assessment
conditions used: 1 μM; in comparison with enhancing action for differentiation-induction of EM 100 μM
measurement label: activities in THP-1/Mφ system, Treated conc. 1 μM

compound	value reported
CC[C@@H](O)[C@@](C)(O)[C@@H]1OC(=O)[C@H](C)[C@@H](O[C@H]2C[C@@](C)(OC)[C@@H](O)[C@H](C)O2)[C@H](C)[C@@H](O[C@@H]2O[C@H](C)C[C@H](N(C)CCCO)[C@H]2O)[C@@]2(C)CC(C)=C(O2)[C@@H]1C	−
CCC(O)C(C)(O)C1OC(=O)C(C)C(OC2CC(C)(OC)C(O)C(C)O2)C(C)C(OC2OC(C)CC(NCc3ccccc3)C2O)C2(C)CC(C)=C(O2)C1C (stereo not drawn)	+ (enhanced 50-100%)
CCC(O)C(C)(O)C1OC(=O)C(C)C(OC2CC(C)(OC)C(O)C(C)O2)C(C)C(OC2OC(C)CC(NC(C)=O)C2O)C2(C)CC(C)=C(O2)C1C (stereo not drawn)	−
CCCN(CCC)C1CC(C)OC(OC2C(C)C(OC3CC(C)(OC)C(O)C(C)O3)C(C)C(=O)OC(C(C)(O)C(O)CC)C(C)C3=C(C)CC2(C)O3)C1O (stereo not drawn)	−
CCNC1CC(C)OC(OC2C(C)C(OC3CC(C)(OC)C(O)C(C)O3)C(C)C(=O)OC(C(C)(O)C(O)CC)C(C)C3=C(C)CC2(C)O3)C1O (stereo not drawn)	+ (enhanced 50-100%)
CCC(O)C(C)(O)C1OC(=O)C(C)C(OC2CC(C)(OC)C(O)C(C)O2)C(C)C(OC2OC(C)CC(N(C)S(C)(=O)=O)C2O)C2(C)CC(C)=C(O2)C1C (stereo not drawn)	+ (enhanced 50-100%)
COC1(C)CC(OC2C(C)C(=O)OC(C(C)O)C(C)C3=C(C)CC(C)(O3)C(OC3OC(C)CC(N(C)C)C3O)C2C)OC(C)C1O (stereo not drawn)	± (enhanced 25-50%)
CCC(O)C(C)(O)C1OC(=O)C(C)C(O)C(C)C(OC2OC(C)CC(NC)C2O)C2(C)CC(C)=C(O2)C1C (stereo not drawn)	−
C#CCN(CC#C)C1CC(C)OC(OC2C(C)C(OC3CC(C)(OC)C(O)C(C)O3)C(C)C(=O)OC(C(C)(O)C(O)CC)C(C)C3=C(C)CC2(C)O3)C1O (stereo not drawn)	± (enhanced 25-50%)
CCCNC1CC(C)OC(OC2C(C)C(OC3CC(C)(OC)C(O)C(C)O3)C(C)C(=O)OC(C(C)(O)C(O)CC)C(C)C3=C(C)CC2(C)O3)C1O (stereo not drawn)	+ (enhanced 50-100%)
COC1(C)CC(OC2C(C)C(=O)OC(C(C)N)C(C)C3=C(C)CC(C)(O3)C(OC3OC(C)CC(N(C)C)C3O)C2C)OC(C)C1O (stereo not drawn)	−
COC1(C)CC(OC2C(C)C(=O)OC(C(C)=NO)C(C)C3=C(C)CC(C)(O3)C(OC3OC(C)CC(N(C)C)C3O)C2C)OC(C)C1O (stereo not drawn)	−

====

System: THP-1 cells
method description: enhancing effect for differentiation-induction from human monocyte to macrophage (THP-1/Mφ system, MTT readout)
Format: cell-based
conditions used: 1 μM; in comparison with enhancing action for differentiation-induction of EM 100 μM
measurement label: activities in THP-1/Mφ system, Treated conc. 1 μM

compound	experimental system	value reported
CCC(O)C(C)(O)C1OC(=O)C(C)C(OC2CC(C)(OC)C(O)C(C)O2)C(C)C(OC2OC(C)CC(N(C)CCF)C2O)C2(C)CC(C)=C(O2)C1C (stereo not drawn)	THP-1 cells	± (enhanced 25-50%)
C=CCN(CC=C)C1CC(C)OC(OC2C(C)C(OC3CC(C)(OC)C(O)C(C)O3)C(C)C(=O)OC(C(C)(O)C(O)CC)C(C)C3=C(C)CC2(C)O3)C1O (stereo not drawn)	THP-1 cells	−
CCC(O)C(C)(O)C1OC(=O)C(C)C(OC2CC(C)(OC)C(O)C(C)O2)C(C)C(OC2OC(C)CC(N(CCCCCCCCCCBr)CCCCCCCCCCBr)C2O)C2(C)CC(C)=C(O2)C1C (stereo not drawn)	THP-1 cells	± (enhanced 25-50%)

====

Quick list: melting point per entry.
measurement label: melting point

compound	measurement label	value reported
CCCCCCN(CCCCCC)C1CC(C)O[C@@H](O[C@@H]2[C@@H](C)[C@H](O[C@H]3CC(C)(OC)[C@@H](O)C(C)O3)[C@@H](C)[C@@]3(O)O[C@H]([C@@H](C)C4O[C@@]2(C)C[C@@H]4C)[C@](C)(O)[C@@H](CC)O3)C1O (stereo partly shown)	melting point	158 to 160 °C
CC[C@H]1O[C@]2(O)O[C@H]([C@@H](C)C3O[C@@](C)(C[C@@H]3C)[C@H](O[C@@H]3OC(C)CC(N4CCCCC4)C3O)[C@@H](C)[C@H](O[C@H]3CC(C)(OC)[C@@H](O)C(C)O3)[C@H]2C)[C@]1(C)O (stereo partly shown)	melting point	128 to 130 °C
CC[C@H]1O[C@]2(O)O[C@H]([C@@H](C)C3O[C@@](C)(C[C@@H]3C)[C@H](O[C@@H]3OC(C)CC(N4CCCCCC4)C3O)[C@@H](C)[C@H](O[C@H]3CC(C)(OC)[C@@H](O)C(C)O3)[C@H]2C)[C@]1(C)O (stereo partly shown)	melting point	120 to 123 °C
CCCCCCNC1CC(C)O[C@@H](O[C@@H]2[C@@H](C)[C@H](O[C@H]3CC(C)(OC)[C@@H](O)C(C)O3)[C@@H](C)[C@@]3(O)O[C@H]([C@@H](C)C4O[C@@]2(C)C[C@@H]4C)[C@](C)(O)[C@@H](CC)O3)C1O (stereo partly shown)	melting point	115 to 118 °C

====

System: THP-1 cells
method description: enhancing effect for differentiation-induction from human monocyte to macrophage (THP-1/Mφ system, MTT readout)
Type: cell-based
Set-up: key: ++: enhanced 100% or more; +: enhanced 50-100%; ±: enhanced 25-50%; −: no activity; /: expressed cytoxicity; NT: not tested or under assessment
conditions used: 3 μM; in comparison with enhancing action for differentiation-induction of EM 100 μM
measurement label: activities in THP-1/Mφ system, Treated conc. 3 μM

compound	value reported
CCC(O)C(C)(O)C1OC(=O)C(C)C(OC2CC(C)(OC)C(O)C(C)O2)C(C)C(OC2OC(C)CC(N(C)CC#N)C2O)C2(C)CC(C)=C(O2)C1C (stereo not shown) [EM742]	−
CC[C@@H](O)[C@@](C)(O)[C@@H]1OC(=O)[C@H](C)[C@@H](O[C@H]2C[C@@](C)(OC)[C@@H](O)[C@H](C)O2)[C@H](C)[C@@H](O[C@@H]2O[C@H](C)C[C@H](N(CC)CC)[C@H]2O)[C@@]2(C)CC(C)=C(O2)[C@@H]1C [EM723]	+ (enhanced 50-100%)
CCC(O)C(C)(O)C1OC(=O)C(C)C(OC2CC(C)(OC)C(O)C(C)O2)C(C)C(OC2OC(C)CC(N3CCCC3)C2O)C2(C)CC(C)=C(O2)C1C (stereo not shown) [EM735]	+ (enhanced 50-100%)
CCC(O)C(C)(O)C1OC(=O)C(C)C(O)C(C)C(OC2OC(C)CC(NC)C2O)C2(C)CC(C)=C(O2)C1C (stereo not shown) [EM754]	−
COC1(C)CC(OC2C(C)C(=O)OC(C(C)O)C(C)C3=C(C)CC(C)(O3)C(OC3OC(C)CC(N(C)C)C3O)C2C)OC(C)C1O (stereo not shown) [EM746]	+ (enhanced 50-100%)
CCCCCCN(CCCCCC)C1CC(C)O[C@@H](O[C@@H]2[C@@H](C)[C@H](O[C@H]3CC(C)(OC)[C@@H](O)C(C)O3)[C@@H](C)[C@@]3(O)O[C@H]([C@@H](C)C4O[C@@]2(C)C[C@@H]4C)[C@](C)(O)[C@@H](CC)O3)C1O (stereo partly shown) [EM739]	+ (enhanced 50-100%)
CC[C@@H](O)[C@@](C)(O)[C@@H]1OC(=O)[C@H](C)[C@@H](O[C@H]2C[C@@](C)(OC)[C@@H](O)[C@H](C)O2)[C@H](C)[C@@H](O[C@@H]2O[C@H](C)C[C@H](N(C)CCCO)[C@H]2O)[C@@]2(C)CC(C)=C(O2)[C@@H]1C [EM744]	−
CCNC1CC(C)OC(OC2C(C)C(OC3CC(C)(OC)C(O)C(C)O3)C(C)C(=O)OC(C(C)(O)C(O)CC)C(C)C3=C(C)CC2(C)O3)C1O (stereo not shown) [EM722]	+ (enhanced 50-100%)
CCCN(CCC)C1CC(C)OC(OC2C(C)C(OC3CC(C)(OC)C(O)C(C)O3)C(C)C(=O)OC(C(C)(O)C(O)CC)C(C)C3=C(C)CC2(C)O3)C1O (stereo not shown) [EM731]	+ (enhanced 50-100%)
